test system: ALK(C1156Y); settings: Compound Concentration (nM):1000;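 also: KINOMEscan scanMAX binding as percent activity remaining versus control; lower means stronger binding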
VALUE KIND: Percent Control (%)
Give the number; % is assumed, so skip it.

Known Percent Control results, listed for orientation:
COMPOUND | SYSTEM TESTED | VALUE KIND | ENDPOINT UNIT | MEASURED RESULT
CN1CCN(C(=O)c2ccc(NC(=O)Nc3ccc(N(C)c4ccnc(Nc5ccc(CS(C)(=O)=O)cc5)n4)cc3)cc2)CC1.Cl [GW830263A] | ALK(C1156Y) | Percent Control | % | 64
CN(C)CCNC(=O)Nc1ccc(N(C)c2ccnc(Nc3ccc(CS(C)(=O)=O)cc3)n2)cc1.Cl [GW830900A] | ALK(C1156Y) | Percent Control | % | 70
NS(=O)(=O)c1ccc(N/N=C2\C(=O)Nc3ccc(C(=O)NCc4ccncc4)cc32)cc1 [GW300657X] | ALK(C1156Y) | Percent Control | % | 83
Cl.O=C(Nc1ccc(Oc2ccc3[nH]c(NC(=O)c4ccco4)nc3c2)cc1)Nc1cc(C(F)(F)F)ccc1F [GW683134A] | ALK(C1156Y) | Percent Control | % | 92
COc1ccc2[nH]c3c4[nH]c5ccc(OC)cc5c4c4c(c3c2c1)C(=O)NC4=O [GW296115X] | ALK(C1156Y) | Percent Control | % | 25

# evaluate next
I'd like to know its Percent Control. The compound in question is Cl.O=C(O[C@H]1CN[C@H](C#Cc2cc3ncnc(Nc4ccc5c(cnn5Cc5ccccc5)c4)c3s2)C1)N1CCOCC1 [GSK200398A] 94
